Source: ChEMBL document CHEMBL1687768

Tested on: Kidney
METHOD: Drug level in immunosuppressed Swiss Webster mouse Kidney with disseminated aspergillosis assessed as compound level per gram of tissue at 5 mg/kg/day, iv for 7 days measured on day 8
Assay type: ADME, organism-based
Set-up: route intravenous
EXPERIMENTAL CONTEXT: in vivo, 168 h
Starred links: 1 amine or outer side, 2 acyl side, 3 side chain; linkers in the order of their positions; H or OH if unused. Positions of bridges follow the written chain, without caps; N, C: chain ends. Non-standard residues stand in square brackets, D forms with d. Residues, ends and D or L forms follow the SMILES beside them. *: point of attachment. hTyr(3S-OH,4S-OH,3'-OSO3H) = N[C@H](C(=O)O)[C@H](O)[C@@H](O)c1ccc(O)c(OS(=O)(=O)O)c1; Orn(4R-OH,5R-OH) = O=C([C@H](C[C@@H](O)[C@@H](O)N[*:3])N[*:1])[*:2]; Pro(3S-OH,4S-Me) = C[C@H]1CN[C@H](C(=O)O)[C@H]1O; X1 = CCCCCOc1ccc(-c2cc(-c3ccc(C(=O)*)cc3)no2)cc1; Gln(3R-OH) = NC(=O)C[C@@H](O)[C@H](N)C(=O)O; Hyp = O=C(O)[C@@H]1C[C@@H](O)CN1
ASSAY READOUT: tissue concentration (µg/g)

{"COMPOUND": "CCCCCOc1ccc(-c2cc(-c3ccc(C(=O)N[C@H]4C[C@@H](O)[C@@H](O)NC(=O)[C@@H]5[C@@H](O)[C@@H](C)CN5C(=O)[C@H]([C@H](O)CC(N)=O)NC(=O)[C@H]([C@H](O)[C@@H](O)c5ccc(O)c(OS(=O)(=O)O)c5)NC(=O)[C@@H]5C[C@@H](O)CN5C(=O)[C@H]([C@@H](C)O)NC4=O)cc3)no2)cc1 [MICAFUNGIN] (X1-[Orn(4R-OH,5R-OH)]T[Hyp][hTyr(3S-OH,4S-OH,3'-OSO3H)][Gln(3R-OH)][Pro(3S-OH,4S-Me)]; lactam 1-C)", "UNITS SYMBOL": "µg/g", "QUANTITATIVE READOUT": 5.6}

----------
System: Kidney
METHOD: Drug level in immunosuppressed Swiss Webster mouse Kidney with disseminated aspergillosis assessed as compound level per gram of tissue at 10 mg/kg/day, iv for 7 days measured on day 8
Assay type: ADME, organism-based
Set-up: route intravenous
EXPERIMENTAL CONTEXT: in vivo, 168 h
Starred links: 1 amine or outer side, 2 acyl side, 3 side chain; linkers in the order of their positions; H or OH if unused. Positions of bridges follow the written chain, without caps; N, C: chain ends. Non-standard residues stand in square brackets, D forms with d. Residues, ends and D or L forms follow the SMILES beside them. *: point of attachment. hTyr(3S-OH,4S-OH,3'-OSO3H) = N[C@H](C(=O)O)[C@H](O)[C@@H](O)c1ccc(O)c(OS(=O)(=O)O)c1; Orn(4R-OH,5R-OH) = O=C([C@H](C[C@@H](O)[C@@H](O)N[*:3])N[*:1])[*:2]; Pro(3S-OH,4S-Me) = C[C@H]1CN[C@H](C(=O)O)[C@H]1O; X1 = CCCCCOc1ccc(-c2cc(-c3ccc(C(=O)*)cc3)no2)cc1; Gln(3R-OH) = NC(=O)C[C@@H](O)[C@H](N)C(=O)O; Hyp = O=C(O)[C@@H]1C[C@@H](O)CN1

{"MOLECULE": "CCCCCOc1ccc(-c2cc(-c3ccc(C(=O)N[C@H]4C[C@@H](O)[C@@H](O)NC(=O)[C@@H]5[C@@H](O)[C@@H](C)CN5C(=O)[C@H]([C@H](O)CC(N)=O)NC(=O)[C@H]([C@H](O)[C@@H](O)c5ccc(O)c(OS(=O)(=O)O)c5)NC(=O)[C@@H]5C[C@@H](O)CN5C(=O)[C@H]([C@@H](C)O)NC4=O)cc3)no2)cc1 [MICAFUNGIN] (X1-[Orn(4R-OH,5R-OH)]T[Hyp][hTyr(3S-OH,4S-OH,3'-OSO3H)][Gln(3R-OH)][Pro(3S-OH,4S-Me)]; lactam 1-C)", "MEASURED TARGET": "Kidney", "tissue concentration": "25.2 µg/g"}
